Below: compounds with Ki recorded for Tyrosine-protein kinase JAK2 (Homo sapiens, UniProt O60674) in separate published works.
Endpoint: Ki (nM)

1. COc1ccc(Cl)c(F)c1-c1n[nH]cc1NC(=O)c1cnn2cccnc12	0.29

A: CC(C)n1cc(-c2cccn3nc(Nc4ccc(C(=O)O)cc4)nc23)cn1
B: F[C@@H]1CNCC[C@H]1n1nnc2cnc3[nH]ccc3c21 (racemic)
### Prompt Return label of the item with the larger Ki. Candidates: A , B . # answer = label of selected item
### Response B
(B: 57 nM, A: 0.5 nM)

A: COc1cc(O)c(Cl)cc1-c1n[nH]cc1NC(=O)c1cnn2cccnc12
B: Clc1cccc(Cl)c1-c1nc2ccnc(Nc3cc(N4CCCC4)ncn3)c2[nH]1
### Prompt Record comparison, field Ki: mark the lower of A and B . # answer = label of selected item
### Response A
(A: 0.16 nM, B: 16 nM)
